system-under-test: MDM2 (Homo sapiens)
procedure-details: MDM2 binding screen of Libraries 3 and 4: displacement of fluorescent probe F-M8 at 750 nM macrocycle
recorded-conditions: Panel b, Library 3: 63 scaffolds combinatorially acylated with 15 carboxylic acids at 30 picomole scale; displacement of fluorescent peptide probe; macrocycle 750 nM

| compound | fraction of fluorescent probe displaced |
| --- | --- |
| O=C(/C=C/c1ccc(OCc2ccccc2)cc1)NCCN1CC(=O)N[C@@H](Cc2c[nH]c3cc(Cl)ccc23)C(=O)NCCSSCCC(=O)NCC2(CC2)C1=O [X-Amcp-N-Aeg-Cl-Trp + Acid 110] | 0.015 |
| O=C1CCSSCCNC(=O)[C@H](Cc2ccc3ccccc3c2)NC(=O)CN(CCNC(=O)c2ccc3ccccc3c2)C(=O)C2(CC2)CN1 [X-Amcp-N-Aeg-2-Nal + Acid 107] | 0.018 |
| O=C(/C=C/c1ccc2ccccc2c1)NC[C@H]1NC(=O)[C@H]2CCCN(C2)C(=O)CCSSCCNC(=O)[C@H](Cc2ccc3ccccc3c2)NC1=O [X-Nip-D-Dap-2-Nal + Acid 112] | 0.008 |
| O=C(/C=C/c1ccc2ccccc2c1)NC[C@H]1NC(=O)[C@@H]2CN(CCO2)C(=O)CCSSCCNC(=O)[C@H](Cc2c[nH]c3cc(Cl)ccc23)NC1=O [X-Cop-D-Dap-Cl-Trp + Acid 112] | 0.055 |
| O=C1CCSSCCNC(=O)[C@H](Cc2ccc3ccccc3c2)NC(=O)[C@H](CNC(=O)C2CC2c2ccccc2)NC(=O)C2(CC2)CN1 (some centres unmarked) [X-Amcp-Dap-2-Nal + Acid 105] | -0.034 |

====

system-under-test: MDM2 (Homo sapiens, UniProt Q00987)
Sequence (Q00987 whole entry): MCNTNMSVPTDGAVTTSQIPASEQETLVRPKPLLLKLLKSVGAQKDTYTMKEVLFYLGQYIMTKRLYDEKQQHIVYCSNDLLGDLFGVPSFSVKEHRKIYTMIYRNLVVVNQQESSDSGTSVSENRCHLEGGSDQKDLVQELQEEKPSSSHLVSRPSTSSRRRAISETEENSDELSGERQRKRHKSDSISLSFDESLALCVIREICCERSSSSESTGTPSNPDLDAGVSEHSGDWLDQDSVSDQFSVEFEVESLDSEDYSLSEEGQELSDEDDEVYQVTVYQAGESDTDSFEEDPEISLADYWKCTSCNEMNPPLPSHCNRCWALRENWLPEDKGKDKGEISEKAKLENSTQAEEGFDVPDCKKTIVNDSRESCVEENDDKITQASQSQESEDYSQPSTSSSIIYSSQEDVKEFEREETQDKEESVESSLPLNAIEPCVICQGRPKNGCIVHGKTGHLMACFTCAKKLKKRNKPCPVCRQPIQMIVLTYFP
procedure-details: MDM2 binding screen: displacement of fluorescent p53 peptide probe FP53 (fluorescence polarization)
recorded-conditions: Acid 25; initial screen; crude macrocycle reactions
Numbered stars: 1 amine (or outer) side, 2 acyl side, 3 side chain; on linkers, the order of the positions; unused ones are H or OH. Bridge positions count the residues as written; N and C are the ends. Square brackets hold non-standard residues; d marks the D form. Peptide text beside a SMILES is read from it. * marks the point of attachment. Benzoyl(4-Cl) = O=C(c1ccc(Cl)cc1)*; Cysteamide = C(CS[*:3])N[*:1]; Api = NC1(C(=O)O)CCNCC1; Mpa = O=C(O)CCS
Measured fraction fluorescent probe displaced, Screen, listed per entry for reference.
result-type: fraction fluorescent probe displaced, Screen

| compound | quantitative-readout |
| --- | --- |
| O=C1NC(Cc2ccccc2)C(=O)N2CCN(C(=O)c3ccc(Cl)cc3)CC2C(=O)NCCSSCCC(=O)N2CCCC12 (stereo not drawn) | 0.0244 |
| O=C1CCNC(=O)C(Cc2ccccc2)NC(=O)CCSSCCNC(=O)C(CNC(=O)c2ccc(Cl)cc2)N1 (stereo not drawn) | 0.22 |
| O=C1CCNC(=O)C(Cc2c[nH]c3ccccc23)NC(=O)C2CN(C(=O)c3ccc(Cl)cc3)CCN2C(=O)CCSSCCN1 (stereo not drawn) | 0.22 |
| O=C1CCSSCCNC(=O)[C@@H]2CCCN2C(=O)[C@H](Cc2c[nH]c3ccccc23)NC(=O)C2(CCN(C(=O)c3ccc(Cl)cc3)CC2)N1 [X D6 W B1 Acid 25] ([Mpa][Api](Benzoyl(4-Cl))WP-Cysteamide; disulfide 1-C) | 0.25 |
| O=C1CCSSCCNC(=O)c2cccc(c2)CNC(=O)C(Cc2ccccc2)NC(=O)C(CNC(=O)c2ccc(Cl)cc2)N1 (stereo not drawn) | 0.0569 |
| O=C1CCSSCCNC(=O)[C@H](CNC(=O)c2ccc(Cl)cc2)NC(=O)[C@H](Cc2ccccc2)NC(=O)c2cccc(c2)CN1 | 0.09 |

====

Overview of reported fraction fluorescent probe displaced, Replicate across a group of compounds:
system-under-test: MDM2 (Homo sapiens, UniProt Q00987)
procedure-details: MDM2 binding screen: displacement of fluorescent p53 peptide probe FP53 (fluorescence polarization)
recorded-conditions: Acid 91; replicate; crude macrocycle reactions
Numbered stars: 1 amine (or outer) side, 2 acyl side, 3 side chain; on linkers, the order of the positions; unused ones are H or OH. Bridge positions count the residues as written; N and C are the ends. Square brackets hold non-standard residues; d marks the D form. Peptide text beside a SMILES is read from it. * marks the point of attachment. Cysteamide = C(CS[*:3])N[*:1]; X1 = O=C(/C=C/c1ccccc1)*; Dap = NC[C@H](N)C(=O)O; Mpa = O=C(O)CCS
result-type: fraction fluorescent probe displaced, Replicate

| compound | result |
| --- | --- |
| O=C1CCSSCCNC(=O)[C@H]2CCCN(C2)C(=O)C2(CCN(C(=O)/C=C/c3ccccc3)CC2)NC(=O)[C@H](Cc2c[nH]c3ccccc23)N1 | 0.09 |
| O=C(/C=C/c1ccccc1)NC[C@@H]1NC(=O)[C@H](Cc2c[nH]c3ccccc23)NC(=O)[C@@H]2CCCN2C(=O)CCSSCCNC1=O [X B1 W D3 Acid 91] ([Mpa]PW[Dap](X1)-Cysteamide; disulfide 1-C) | 0.04 |
| O=C1CCSSCCNC(=O)C(Cc2c[nH]c3ccccc23)NC(=O)C2CCCN(C2)C(=O)C2(CCN(C(=O)C=Cc3ccccc3)CC2)N1 (stereo not drawn) | 0.0168 |
| O=C1CCSSCCNC(=O)C2(CCN(C(=O)/C=C/c3ccccc3)CC2)NC(=O)CCNC(=O)[C@H](Cc2c[nH]c3ccccc23)N1 | 0.09 |
| O=C1CCSSCCNC(=O)C2CN(C(=O)C=Cc3ccccc3)CCN2C(=O)c2cccc(c2)CNC(=O)C(Cc2ccccc2)N1 (stereo not drawn) | -0.0333 |
| O=C1CCSSCCNC(=O)c2cccc(c2)CNC(=O)[C@H](Cc2c[nH]c3ccccc23)NC(=O)C2(CCN(C(=O)/C=C/c3ccccc3)CC2)N1 | 0.07 |
| O=C(C=Cc1ccccc1)NC1CC2C(=O)NC(Cc3ccccc3)C(=O)NCCC(=O)NCCSSCCC(=O)N2C1 (stereo not drawn) | -0.0333 |
| O=C1CCNC(=O)C2(CCN(C(=O)/C=C/c3ccccc3)CC2)NC(=O)[C@H](Cc2ccccc2)NC(=O)CCSSCCN1 | -0.00827 |
| O=C1CCSSCCNC(=O)C2(CCN(C(=O)C=Cc3ccccc3)CC2)NC(=O)C(Cc2c[nH]c3ccccc23)NC(=O)CCN1 (stereo not drawn) | 0.07 |

====

system-under-test: UniProtKB Q00987
procedure-details: MDM2 binding screen: displacement of fluorescent p53 peptide probe FP53 (fluorescence polarization)
recorded-conditions: 10 µM macrocycle concentration; crude acylated macrocycle (scaffold Mpa-AA1-AA2-AA3 x carboxylic acid); p53-based fluorescent peptide, human MDM2
Numbered stars: 1 amine (or outer) side, 2 acyl side, 3 side chain; on linkers, the order of the positions; unused ones are H or OH. Bridge positions count the residues as written; N and C are the ends. Square brackets hold non-standard residues; d marks the D form. Peptide text beside a SMILES is read from it. * marks the point of attachment. Pyrazinoyl(5-oxo-4H) = O=C(c1c[nH]c(=O)cn1)*; Isoxazole3carbonyl(5-Me) = Cc1cc(C(=O)*)no1; Indane2carbonyl = O=C(C1Cc2ccccc2C1)*; Phenoxyacetyl = O=C(COc1ccccc1)*; Cysteamide = C(CS[*:3])N[*:1]; X13 = O=C(c1ccc2[nH]cnc2c1)*; X6 = O=C(c1ccc2nc[nH]c2c1)*; MeOSuc = COC(=O)CCC(=O)*; X17 = O=C(c1ccc(Br)o1)*; Dap = NC[C@H](N)C(=O)O; Mpa = O=C(O)CCS

| compound | fraction fluorescent probe displaced |
| --- | --- |
| O=C(NC[C@@H]1NC(=O)[C@@H]2CCCN2C(=O)CCSSCCNC(=O)[C@H](Cc2c[nH]c3ccccc23)NC1=O)c1ccc(Br)o1 [X-B1-D3-W + A21] ([Mpa]P[Dap](X17)W-Cysteamide; disulfide 1-C) | 0.2551 |
| O=C(COc1ccccc1)NC[C@@H]1NC(=O)[C@@H]2CCCN2C(=O)CCSSCCNC(=O)[C@H](Cc2ccccc2)NC1=O [X-B1-D3-F + A13] ([Mpa]P[Dap](Phenoxyacetyl)F-Cysteamide; disulfide 1-C) | 0.1199 |
| COC(=O)CCC(=O)NC[C@@H]1NC(=O)[C@@H]2CCCN2C(=O)CCSSCCNC(=O)[C@H](Cc2ccccc2)NC1=O [X-B1-D3-F + A93] ([Mpa]P[Dap](MeOSuc)F-Cysteamide; disulfide 1-C) | 0.05512 |
| O=C(NC[C@@H]1NC(=O)[C@@H]2CCCN2C(=O)CCSSCCNC(=O)[C@H](Cc2c[nH]c3ccccc23)NC1=O)c1c[nH]c(=O)cn1 [X-B1-D3-W + A9] ([Mpa]P[Dap](Pyrazinoyl(5-oxo-4H))W-Cysteamide; disulfide 1-C) | 0.06006 |
| O=C(NC[C@@H]1NC(=O)[C@@H]2CCCN2C(=O)CCSSCCNC(=O)[C@H](Cc2ccccc2)NC1=O)C1Cc2ccccc2C1 [X-B1-D3-F + A76] ([Mpa]P[Dap](Indane2carbonyl)F-Cysteamide; disulfide 1-C) | 0.03186 |
| COC(=O)CCC(=O)NC[C@@H]1NC(=O)[C@@H]2CCCN2C(=O)CCSSCCNC(=O)[C@H](Cc2c[nH]c3ccccc23)NC1=O [X-B1-D3-W + A93] ([Mpa]P[Dap](MeOSuc)W-Cysteamide; disulfide 1-C) | 0.1339 |
| O=C(NC[C@@H]1NC(=O)[C@@H]2CCCN2C(=O)CCSSCCNC(=O)[C@H](Cc2ccccc2)NC1=O)c1ccc2[nH]cnc2c1 [X-B1-D3-F + A6] ([Mpa]P[Dap](X13)F-Cysteamide; disulfide 1-C) | -0.003922 |
| Cc1cc(C(=O)NC[C@@H]2NC(=O)[C@@H]3CCCN3C(=O)CCSSCCNC(=O)[C@H](Cc3c[nH]c4ccccc34)NC2=O)no1 [X-B1-D3-W + A3] ([Mpa]P[Dap](Isoxazole3carbonyl(5-Me))W-Cysteamide; disulfide 1-C) | 0.08125 |
| O=C(NC[C@@H]1NC(=O)[C@@H]2CCCN2C(=O)CCSSCCNC(=O)[C@H](Cc2c[nH]c3ccccc23)NC1=O)c1ccc2nc[nH]c2c1 [X-B1-D3-W + A6] ([Mpa]P[Dap](X6)W-Cysteamide; disulfide 1-C) | 0.2779 |
